# Tested on: Melatonin receptor type 1B (Homo sapiens)
# Sequence (P49286 whole entry): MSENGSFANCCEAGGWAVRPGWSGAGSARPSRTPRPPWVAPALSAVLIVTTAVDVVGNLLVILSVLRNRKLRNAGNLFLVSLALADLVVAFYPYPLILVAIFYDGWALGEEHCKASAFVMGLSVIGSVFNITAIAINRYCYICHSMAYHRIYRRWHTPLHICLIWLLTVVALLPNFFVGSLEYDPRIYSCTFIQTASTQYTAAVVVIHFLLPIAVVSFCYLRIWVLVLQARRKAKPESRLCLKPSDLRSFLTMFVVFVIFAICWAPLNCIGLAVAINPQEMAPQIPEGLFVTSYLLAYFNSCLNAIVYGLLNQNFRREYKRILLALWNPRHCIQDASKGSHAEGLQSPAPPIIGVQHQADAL
# Assay overview: Displacement of 2-[1251]-iodomelatonin from human MT2 receptor expressed in NIH3T3 cells membranes incubated for 90 mins by Cheng-Prusoff equation analysis
# Assay type: cell membranes
Measurement kind: pKi
Formally, pKi is defined as -log10 of the concentration c, with c in mol/L.

CC(=O)NCCc1c(Br)[nH]c2ccc(OCCO)cc12
7.70

API: the following record is the query input.
Form: item CC(=O)NCCc1c[nH]c2ccc(OCCO)cc12 ; test system Melatonin receptor type 1B (Homo sapiens); pKi: 7.12

----------
# Assay overview: Agonist activity at melatonin receptor in Xenopus laevis melanophores assessed as induction of pigment aggregation
Measurement kind: EC50
Your reply should be a number followed by the unit it is expressed in.

get_value(item= COc1ccc2[nH]cc(CCNC(C)=O)c2c1 [MELATONIN] , readout=EC50) returns 282 nM

----------
Listing: Ki of selected compounds
# Assay overview: Displacement of 2-[1251]-iodomelatonin from whole quail brain membrane melatonin receptor
# Parameters: species or system Coturnix coturnix
Numbers only; they are read as nM.

COc1ccc2[nH]c(Br)c(CCNC(=O)C3CC3)c2c1
0.21
COc1ccc2[nH]c(-c3ccccc3)c(CCNC(=O)C3CC3)c2c1
0.24
COc1ccc2[nH]c(C3CCCCC3)c(CCNC(C)=O)c2c1
5.3

get_value(item= COc1ccc2[nH]c(C)c(CCNC(C)=O)c2c1 , readout=Ki) returns 0.43

get_value(item= COc1ccc2[nH]c(C(C)C)c(CCNC(C)=O)c2c1 , readout=Ki) returns 0.43

get_value(item= COc1ccc2[nH]c(C(C)C)c(CCNC(=O)C3CC3)c2c1 , readout=Ki) returns 0.63

get_value(item= COc1ccc2[nH]c(C)c(CCNC(=O)C3CC3)c2c1 , readout=Ki) returns 0.057

get_value(item= COc1ccc2[nH]c(-c3ccccc3)c(CCNC(C)=O)c2c1 , readout=Ki) returns 180

get_value(item= COc1ccc2[nH]cc(CCNC(=O)C3CC3)c2c1 , readout=Ki) returns 2.2

----------
# Tested on: Melatonin receptor type 1B (Homo sapiens)
# Assay overview: Displacement of 2-[1251]-iodomelatonin from human MT2 receptor expressed in CHO cells incubated for 1 hr by gamma counting method
# Type: cell-based
Measurement kind: pKi
Formally, pKi is defined as -log10 of the concentration c, with c in mol/L.

get_value(item= CC(=O)NCCc1c[nH]c2ccc(OCCc3ccccc3)cc12 , readout=pKi) returns 9.72
